src = patent US20210196796A1

- assay_system: T1, orthogonal hCD122 receptor (hoRb), hCD122 with H133D and Y134F (human, UniProt P14784 27-550); further: reference of the scale not given here
- T1 sequence: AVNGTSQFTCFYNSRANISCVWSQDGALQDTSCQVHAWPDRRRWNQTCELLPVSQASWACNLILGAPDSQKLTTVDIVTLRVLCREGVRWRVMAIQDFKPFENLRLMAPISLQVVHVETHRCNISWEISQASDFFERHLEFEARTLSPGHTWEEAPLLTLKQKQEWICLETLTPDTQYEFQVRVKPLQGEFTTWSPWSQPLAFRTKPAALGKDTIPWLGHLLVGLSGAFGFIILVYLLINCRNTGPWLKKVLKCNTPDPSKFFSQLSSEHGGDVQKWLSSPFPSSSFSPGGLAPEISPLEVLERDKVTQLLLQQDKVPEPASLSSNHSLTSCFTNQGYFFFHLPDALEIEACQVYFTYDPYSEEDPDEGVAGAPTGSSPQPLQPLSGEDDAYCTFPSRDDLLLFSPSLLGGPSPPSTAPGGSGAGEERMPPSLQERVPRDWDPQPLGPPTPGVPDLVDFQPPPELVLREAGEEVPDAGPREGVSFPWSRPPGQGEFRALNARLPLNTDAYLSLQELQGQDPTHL
- protocol_description: cell-based or functional assay
attribute_measured: Relative Proliferation Fold Change 3F8 1:50 (fold)

Completed entries (count: 2):
binder="SQVLTA (ligand) APTSSSTKKTQLQLSQLLVLLTAILNGINNYKNPKLTRMLTFKFYMPKKATELKHLQCLEEELKPLEEVLNLAQSKNFHLRPRDLISNINVIVLELKGSETTFMCEYADETATIVEFLNRWITFCQSIISTLT" assay_value=5.95
binder="R38W, SQVLKA (ligand) APTSSSTKKTQLQLSQLLVLLKAILNGINNYKNPKLTWMLTFKFYMPKKATELKHLQCLEEELKPLEEVLNLAQSKNFHLRPRDLISNINVIVLELKGSETTFMCEYADETATIVEFLNRWITFCQSIISTLT" assay_value=21.4

P: ΔT3, SQVLKA (ligand) APSSSTKKTQLQLSQLLVLLKAILNGINNYKNPKLTRMLTFKFYMPKKATELKHLQCLEEELKPLEEVLNLAQSKNFHLRPRDLISNINVIVLELKGSETTFMCEYADETATIVEFLNRWITFCQSIISTLT
Q: N88Q, SQVLKA (ligand) APTSSSTKKTQLQLSQLLVLLKAILNGINNYKNPKLTRMLTFKFYMPKKATELKHLQCLEEELKPLEEVLNLAQSKNFHLRPRDLISQINVIVLELKGSETTFMCEYADETATIVEFLNRWITFCQSIISTLT
input: Exercise: compare P and Q ; which one has the greater Relative Proliferation Fold Change 3F8 1:50? Your answer should be the label attached to the chosen record.
output: P
